Biological target: UniProt P81908
Sequence (P81908 whole entry): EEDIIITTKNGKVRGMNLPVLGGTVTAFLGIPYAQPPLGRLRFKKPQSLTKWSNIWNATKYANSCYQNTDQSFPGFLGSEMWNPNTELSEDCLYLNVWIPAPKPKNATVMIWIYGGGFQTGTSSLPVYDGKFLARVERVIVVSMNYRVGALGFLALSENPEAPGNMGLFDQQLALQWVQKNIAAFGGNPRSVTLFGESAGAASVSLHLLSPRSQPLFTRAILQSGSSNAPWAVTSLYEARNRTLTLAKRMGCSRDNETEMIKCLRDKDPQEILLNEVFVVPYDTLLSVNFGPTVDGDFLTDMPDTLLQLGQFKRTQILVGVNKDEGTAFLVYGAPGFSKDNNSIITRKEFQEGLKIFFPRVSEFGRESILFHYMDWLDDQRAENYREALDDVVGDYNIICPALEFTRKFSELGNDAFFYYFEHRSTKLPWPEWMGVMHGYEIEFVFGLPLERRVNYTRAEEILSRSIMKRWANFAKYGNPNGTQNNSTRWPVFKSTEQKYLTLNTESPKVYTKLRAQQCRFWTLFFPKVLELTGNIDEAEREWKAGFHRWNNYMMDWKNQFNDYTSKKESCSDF
pIC50: −log10 of the molar value.
// label = satisfied if pIC50 is not less than 8, otherwise not satisfied

Textbook exercise: given the entry CN(C)c1ccccc1CNCCCCCCCNc1c2c(nc3ccccc13)CCCC2 , state whether its pIC50 is greater than or equal to 8. satisfied

Textbook exercise: given the entry Oc1ccccc1CNCCCNc1c2c(nc3cc(Cl)ccc13)CCCC2 , state whether its pIC50 is greater than or equal to 8. not satisfied

Textbook exercise: given the entry CN(C)c1ccccc1CNCCCCCCCCCNc1c2c(nc3ccccc13)CCCC2 , state whether its pIC50 is greater than or equal to 8. satisfied

Textbook exercise: given the entry CN(C)c1ccccc1CNCCCCCCCCNc1c2c(nc3ccccc13)CCCC2 , state whether its pIC50 is greater than or equal to 8. satisfied
